Cited source for all entries: patent US20210087281A1

Measured protection from staurosporine, viability EC50, MCF10A cells values are reported for all entries that follow.
Biological target: native human MET on living cells (human, UniProt P08581 25-1390)
Sequence (P08581 25-1390): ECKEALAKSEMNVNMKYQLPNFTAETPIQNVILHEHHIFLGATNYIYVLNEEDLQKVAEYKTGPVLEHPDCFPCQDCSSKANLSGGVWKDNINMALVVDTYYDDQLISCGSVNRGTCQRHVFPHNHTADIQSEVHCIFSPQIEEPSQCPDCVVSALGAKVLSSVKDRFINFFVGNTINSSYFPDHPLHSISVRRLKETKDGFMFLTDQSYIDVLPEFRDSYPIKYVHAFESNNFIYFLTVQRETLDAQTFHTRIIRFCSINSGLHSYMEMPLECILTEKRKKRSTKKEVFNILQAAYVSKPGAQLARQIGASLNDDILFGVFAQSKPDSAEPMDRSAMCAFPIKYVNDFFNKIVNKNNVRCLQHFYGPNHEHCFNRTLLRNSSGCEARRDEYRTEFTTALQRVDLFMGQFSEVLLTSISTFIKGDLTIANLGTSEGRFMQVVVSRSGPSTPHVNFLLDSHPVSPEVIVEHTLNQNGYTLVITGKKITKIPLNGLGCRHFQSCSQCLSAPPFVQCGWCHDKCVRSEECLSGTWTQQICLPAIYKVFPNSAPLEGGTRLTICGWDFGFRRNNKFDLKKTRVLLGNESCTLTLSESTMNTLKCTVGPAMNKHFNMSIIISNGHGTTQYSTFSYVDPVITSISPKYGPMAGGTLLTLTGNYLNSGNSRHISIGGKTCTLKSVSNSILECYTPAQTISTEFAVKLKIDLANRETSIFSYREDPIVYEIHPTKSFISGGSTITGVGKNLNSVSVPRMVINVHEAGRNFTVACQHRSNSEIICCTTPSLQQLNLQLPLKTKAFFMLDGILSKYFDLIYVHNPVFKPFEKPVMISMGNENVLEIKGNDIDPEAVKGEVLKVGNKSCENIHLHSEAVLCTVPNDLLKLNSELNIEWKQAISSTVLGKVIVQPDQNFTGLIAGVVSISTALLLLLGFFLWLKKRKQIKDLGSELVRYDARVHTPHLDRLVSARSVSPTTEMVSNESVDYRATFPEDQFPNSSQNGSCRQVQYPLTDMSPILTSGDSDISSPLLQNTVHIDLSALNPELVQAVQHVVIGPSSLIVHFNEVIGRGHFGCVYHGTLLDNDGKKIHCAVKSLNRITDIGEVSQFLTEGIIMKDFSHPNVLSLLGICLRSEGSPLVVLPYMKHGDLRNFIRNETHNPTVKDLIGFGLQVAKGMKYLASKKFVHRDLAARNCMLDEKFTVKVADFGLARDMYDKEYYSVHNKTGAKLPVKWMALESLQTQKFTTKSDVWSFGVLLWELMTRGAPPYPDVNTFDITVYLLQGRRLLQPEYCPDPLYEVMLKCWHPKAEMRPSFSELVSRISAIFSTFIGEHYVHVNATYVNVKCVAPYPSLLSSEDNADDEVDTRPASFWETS
Experiment: cell-based or functional assay

Some binders with known protection from staurosporine, viability EC50, MCF10A cells results, for comparison:
# BINDER, RESULT
rows = [
    ("72F8 chimeric llama-human IgG1 mAb (antibody, V domains shown, llama VH on human IgG1 CH1-CH2-CH3, llama VL on human lambda CL) VH: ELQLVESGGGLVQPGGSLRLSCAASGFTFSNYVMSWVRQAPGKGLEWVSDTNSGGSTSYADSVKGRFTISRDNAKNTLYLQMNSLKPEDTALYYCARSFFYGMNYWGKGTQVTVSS VL: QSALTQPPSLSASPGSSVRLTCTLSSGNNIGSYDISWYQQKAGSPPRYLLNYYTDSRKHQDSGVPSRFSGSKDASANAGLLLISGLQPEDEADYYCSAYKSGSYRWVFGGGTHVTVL", "> 32 nM"),
    ("71A3 chimeric llama-human IgG1 mAb (antibody, V domains shown, llama VH on human IgG1 CH1-CH2-CH3, llama VL on human lambda CL) VH: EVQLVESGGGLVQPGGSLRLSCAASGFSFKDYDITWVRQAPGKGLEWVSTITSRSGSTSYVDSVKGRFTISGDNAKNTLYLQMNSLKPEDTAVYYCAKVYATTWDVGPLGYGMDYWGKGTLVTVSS VL: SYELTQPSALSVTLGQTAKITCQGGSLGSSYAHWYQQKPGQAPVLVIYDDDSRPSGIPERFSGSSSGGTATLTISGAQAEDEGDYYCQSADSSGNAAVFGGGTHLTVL", "< 0.5 nM"),
]

### Prompt Given the entry 71G12 chimeric llama-human IgG1 mAb (antibody, V domains shown, llama VH on human IgG1 CH1-CH2-CH3, llama VL on human kappa CL) VH: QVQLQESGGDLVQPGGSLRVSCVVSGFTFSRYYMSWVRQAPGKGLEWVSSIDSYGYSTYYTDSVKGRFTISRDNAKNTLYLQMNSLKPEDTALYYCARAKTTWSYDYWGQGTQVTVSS VL: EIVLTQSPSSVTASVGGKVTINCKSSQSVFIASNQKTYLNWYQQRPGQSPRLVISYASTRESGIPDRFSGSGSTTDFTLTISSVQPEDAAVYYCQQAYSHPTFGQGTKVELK , report its measured protection from staurosporine, viability EC50, MCF10A cells.
### Response > 32 nM
